Values from patent US9586968B2

- study system: human Nav1.5 (Homo sapiens, UniProt Q14524)
- Construct: expressed in transfected cells
- Sequence (Q14524 whole entry): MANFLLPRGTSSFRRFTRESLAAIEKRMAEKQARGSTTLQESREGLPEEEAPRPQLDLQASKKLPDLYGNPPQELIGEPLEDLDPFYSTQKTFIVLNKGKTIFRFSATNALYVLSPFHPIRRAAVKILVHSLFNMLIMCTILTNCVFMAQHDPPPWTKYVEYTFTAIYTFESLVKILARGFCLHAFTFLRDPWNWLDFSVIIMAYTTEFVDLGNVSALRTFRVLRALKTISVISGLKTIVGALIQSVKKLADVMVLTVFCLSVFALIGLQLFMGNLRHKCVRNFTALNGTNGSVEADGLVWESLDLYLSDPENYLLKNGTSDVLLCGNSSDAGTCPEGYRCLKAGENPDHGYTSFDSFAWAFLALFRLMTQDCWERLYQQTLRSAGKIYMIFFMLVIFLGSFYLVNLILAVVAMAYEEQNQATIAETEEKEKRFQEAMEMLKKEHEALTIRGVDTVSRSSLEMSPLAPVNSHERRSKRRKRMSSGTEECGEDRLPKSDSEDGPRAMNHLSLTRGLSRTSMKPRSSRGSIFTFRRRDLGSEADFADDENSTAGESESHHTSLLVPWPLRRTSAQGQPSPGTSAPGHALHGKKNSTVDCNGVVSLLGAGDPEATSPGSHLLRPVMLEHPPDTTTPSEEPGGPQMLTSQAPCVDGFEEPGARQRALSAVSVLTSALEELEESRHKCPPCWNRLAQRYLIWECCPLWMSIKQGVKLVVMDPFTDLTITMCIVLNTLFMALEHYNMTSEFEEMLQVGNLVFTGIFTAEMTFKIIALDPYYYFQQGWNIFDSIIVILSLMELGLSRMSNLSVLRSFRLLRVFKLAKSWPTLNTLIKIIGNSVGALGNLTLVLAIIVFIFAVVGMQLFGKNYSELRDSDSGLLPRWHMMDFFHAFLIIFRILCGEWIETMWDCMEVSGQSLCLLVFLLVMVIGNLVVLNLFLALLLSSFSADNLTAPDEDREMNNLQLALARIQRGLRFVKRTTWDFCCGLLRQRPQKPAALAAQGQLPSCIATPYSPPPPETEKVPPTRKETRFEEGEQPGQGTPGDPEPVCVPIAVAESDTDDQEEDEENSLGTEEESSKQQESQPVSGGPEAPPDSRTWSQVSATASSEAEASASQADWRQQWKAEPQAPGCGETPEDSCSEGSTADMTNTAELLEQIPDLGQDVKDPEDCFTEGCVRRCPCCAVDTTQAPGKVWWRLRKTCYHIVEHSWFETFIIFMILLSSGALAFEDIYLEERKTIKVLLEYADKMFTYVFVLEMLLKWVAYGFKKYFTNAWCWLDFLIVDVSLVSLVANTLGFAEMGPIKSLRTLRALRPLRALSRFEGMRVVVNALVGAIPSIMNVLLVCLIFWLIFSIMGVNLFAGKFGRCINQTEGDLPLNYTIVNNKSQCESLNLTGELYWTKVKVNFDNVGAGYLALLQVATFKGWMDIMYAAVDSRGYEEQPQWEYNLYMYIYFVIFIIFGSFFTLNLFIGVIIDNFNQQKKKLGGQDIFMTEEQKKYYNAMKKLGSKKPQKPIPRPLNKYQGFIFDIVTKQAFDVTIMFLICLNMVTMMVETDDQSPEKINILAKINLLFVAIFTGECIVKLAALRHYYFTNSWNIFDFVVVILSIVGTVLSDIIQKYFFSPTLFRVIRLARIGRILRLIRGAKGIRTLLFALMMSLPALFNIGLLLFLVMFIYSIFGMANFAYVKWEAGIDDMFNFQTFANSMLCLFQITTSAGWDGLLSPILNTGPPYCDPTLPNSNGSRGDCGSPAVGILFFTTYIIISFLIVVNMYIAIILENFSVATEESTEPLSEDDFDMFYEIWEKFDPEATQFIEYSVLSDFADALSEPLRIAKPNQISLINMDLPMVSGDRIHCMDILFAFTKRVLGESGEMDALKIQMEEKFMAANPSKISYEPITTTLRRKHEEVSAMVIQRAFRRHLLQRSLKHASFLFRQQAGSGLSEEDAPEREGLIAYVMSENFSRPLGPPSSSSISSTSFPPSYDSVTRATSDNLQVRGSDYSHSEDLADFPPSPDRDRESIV
- method: PatchXpress automated patch-clamp, inactivated state block of Nav1.5 (selectivity)
- Format: cell-based
- measurement conditions: determined by PatchXpress measurement, HEK 293 cells
assay metric: ratio of Nav1.7 potency:Nav 1.5 potency

INSERT INTO results (compound, study_system, assay_metric, result) VALUES
  ('CC1(C)CN2CCCC2(CNc2cc(F)c(S(=O)(=O)Nc3ncc(F)s3)cc2Cl)C1 (single isomer, unassigned) [Ex8-21-A]', 'human Nav1.5 (Homo sapiens, UniProt Q14524)', 'ratio of Nav1.7 potency:Nav 1.5 potency', 851),
  ('N#Cc1cc(S(=O)(=O)Nc2ncns2)ccc1NCC12CCCN1CCC2', 'human Nav1.5 (Homo sapiens, UniProt Q14524)', 'ratio of Nav1.7 potency:Nav 1.5 potency', 349),
  ('N#Cc1cc(S(=O)(=O)Nc2ncc(Cl)s2)c(F)cc1NCC12CCCN1CCC2', 'human Nav1.5 (Homo sapiens, UniProt Q14524)', 'ratio of Nav1.7 potency:Nav 1.5 potency', 469),
  ('COc1ccc([C@H]2CN3CCC[C@]3(CNc3cc(F)c(S(=O)(=O)Nc4nccs4)cc3Cl)C2)cc1 (single isomer, unassigned)', 'human Nav1.5 (Homo sapiens, UniProt Q14524)', 'ratio of Nav1.7 potency:Nav 1.5 potency', 708),
  ('COc1ccc(C[C@H]2CN3CCC[C@@]3(CNc3cc(F)c(S(=O)(=O)Nc4nccs4)cc3Cl)C2)cc1 (single isomer, unassigned)', 'human Nav1.5 (Homo sapiens, UniProt Q14524)', 'ratio of Nav1.7 potency:Nav 1.5 potency', 918),
  ('CC1CN2CCCC2(CNc2cc(F)c(S(=O)(=O)Nc3ncc(Cl)s3)cc2Cl)C1 (stereo not drawn)', 'human Nav1.5 (Homo sapiens, UniProt Q14524)', 'ratio of Nav1.7 potency:Nav 1.5 potency', 2681),
  ('C[C@H]1CC[C@]2(CNc3cc(F)c(S(=O)(=O)Nc4nccs4)cc3Cl)CCCN12 (single isomer, unassigned)', 'human Nav1.5 (Homo sapiens, UniProt Q14524)', 'ratio of Nav1.7 potency:Nav 1.5 potency', 305),
  ('N#Cc1cc(NCC23CCCN2CCC3)c(Cl)cc1S(=O)(=O)Nc1nccs1', 'human Nav1.5 (Homo sapiens, UniProt Q14524)', 'ratio of Nav1.7 potency:Nav 1.5 potency', 180),
  ('O=S(=O)(Nc1nccs1)c1cc(Cl)c(NCC23CCCCN2CCC3)cc1F (single isomer, unassigned) [Ex17-7-A]', 'human Nav1.5 (Homo sapiens, UniProt Q14524)', 'ratio of Nav1.7 potency:Nav 1.5 potency', 450);
